# TEST PROTOCOL: Thermodynamic solubility of Form I in solvents and aqueous pH media
# Format: physicochemical
# SETUP CONDITIONS: aqueous pH medium, pH 6, aqueous buffer, thermodynamic from solid
OBSERVATION TYPE: solubility thermodynamic

Look up solubility thermodynamic: O=C1CC[C@H](N2Cc3cc(N4CCN(CC5CCN(c6ccc([C@@H]7c8ccc(O)cc8CC[C@@H]7c7ccccc7)cc6)CC5)CC4)ccc3C2=O)C(=O)N1 [Form I] < 50 µg/mL
